Catalogue of pKd readings, one per entry.
Target: T1, PUF4 RNA-binding domain (Saccharomyces cerevisiae, UniProt P25339 537-888)
T1 sequence: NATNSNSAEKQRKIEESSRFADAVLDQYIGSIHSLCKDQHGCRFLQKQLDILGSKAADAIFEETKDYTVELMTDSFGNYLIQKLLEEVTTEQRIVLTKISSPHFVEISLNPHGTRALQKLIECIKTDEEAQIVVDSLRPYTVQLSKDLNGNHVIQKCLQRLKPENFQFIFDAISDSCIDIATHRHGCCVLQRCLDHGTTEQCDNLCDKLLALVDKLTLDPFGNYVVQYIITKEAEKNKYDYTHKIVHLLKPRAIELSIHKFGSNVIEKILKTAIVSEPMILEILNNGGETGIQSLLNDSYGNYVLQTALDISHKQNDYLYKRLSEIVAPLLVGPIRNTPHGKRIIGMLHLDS
Test: Mg; RNA-MaP; 20 mM Na-HEPES pH 7.4, 30 mM KOAc, 0.75 mM MgCl2, 0.1% Tween-20, 5% glycerol, 0.1 mg/mL BSA, 2 mM DTT; 25 C; 0.0125-409.6 nM protein
Settings: tags: N-His6-TEV cleaved; C-SNAP kept, Cy3B-labelled; label: tethered on chip by stalled RNA polymerase
pKd: −log10 of the molar value.
result-type: pKd

[[record]]
binder = "Ib_S4_P3E.1_K3.1_C3.1_H3.1_[T1C]_[A4C]_A3.1_F3.1_T3.1 (ssRNA) RNA: UUUGACAACUGAUCGUUCUUUCUCGUCUAUAUUCUUUCUCGAUCAGUUGUCUUU"
result_type = "pKd"
reported_result = "< 5.64"

[[record]]
binder = "UCUCUUUCACACUUAUUAACUCUCUU (ssRNA) [Id_ii_S1_P5E.4_K5.3_C5.2_[C-2T]_[T-1C]_H5.3_A5.1_F5.1_T5.2_[T11A]_[A12C]]"
result_type = "pKd"
reported_result = "< 5.64"

[[record]]
binder = "UCUCUUUGUAGUGCCUCUCUU (ssRNA) [Ic_S1_P4E.1_K4.1_C4.1_H4.1_A4.1_[T5G]_[A6T]_[T7G]_F4.1_[T8C]_[A9C]_T4.1]"
result_type = "pKd"
reported_result = "< 5.64"

